Source: PubChem BioAssay (NCI)

Assay: NCI Yeast Anticancer Drug Screen. Data for the mlh1 rad18 strain (AID 175)
Details: S. cerevisiae mlh1 rad18 strain growth inhibition; at 5.0 µM (retest, dose inferred, filed as 0.5); active compounds read high
About 79,000 compounds went through this panel and 15% of them were active in at least one assay; those are over-represented in the sample as a whole.
metric name: growth inhibition (%)
Numeric answer only, unit % assumed.

Worked cases, growth inhibition given:
{"molecule": "CC(C)(N=Nc1ccc([N+](=O)[O-])cc1)[N+](=O)[O-]", "growth inhibition / %": 23}
{"molecule": "O=C1C2=Cc3ccccc3CCN2c2ccccc21", "growth inhibition / %": 2}
{"molecule": "CCOC(=S)SCc1nc2ccccc2[nH]1", "growth inhibition / %": 3}
{"molecule": "O=[N+]([O-])c1cc(CN(CCO)CCO)c(O)c2ncccc12", "growth inhibition / %": 96}

What value of growth inhibition has been reported for the following molecule? "COc1c2occc2c(OC)c2c(C)c(C(=O)OCCN3CCOCC3)oc12"
-5

Input "CCOC(=O)c1ccc([N+](=O)[O-])o1"
2

Continue with "Nc1c(O)c(Cl)cc(Cl)c1Cl"
-1

Next molecule up: "O=C(O)C(c1ccc(Cl)cc1)c1ccc(Cl)cc1"
13

"Cc1cc(=O)oc2c(C)c3oc(CBr)cc3cc12" , same question.
-2

Similarly, "C/C(=N\NC(=S)NCc1ccccc1)c1nccnc1C" ?
27
